Reference source: PubChem BioAssay AID1851

# Target desc: Cytochrome P450 2C19 (Homo sapiens)
# Assay name: Cytochrome panel assay with activity outcomes
# Condition parameters: recombinant CYP, pro-luciferin dealkylation, luminescence, p450-cyp2c19; series mostly up to 57.1 µM
The whole screen tested about 16,000 compounds, of which about 5,800 (36%) were called active. Inconclusive results (about 23%) are left out. Calls come from the whole dose curve; as a rule, active = well fitted curve in the direction sought with a large enough effect; inconclusive = small, poorly fitted or top-dose-only effect, or effect the other way; inactive = no such curve, though single readings can be large or run the other way. The list shows a part of the results.
Permitted responses: active, inactive

Query: How did this test come out for FC(F)(F)c1ccccc1-c1cncnc1Nc1ccccc1 ?
Response: active

Query: Call for entry CCNc1ncc2nc(-c3ccc(F)cc3)c(=O)n(-c3ccc(OC)cc3)c2n1 :
Response: inactive

* * *

# Target desc: Cytochrome P450 2C19 (Homo sapiens)
# Assay name: Cytochrome panel assay with activity outcomes
# Condition parameters: recombinant CYP, pro-luciferin dealkylation, luminescence, p450-cyp2c19; series mostly up to 57.1 µM
In all, about 16,000 compounds went through this assay and about 5,800 (36%) were called active. Inconclusive results (about 23%) are left out. Calls follow the shape of the dose curve; as a rule, active = well fitted curve in the direction sought with a large enough effect; inconclusive = small, poorly fitted or top-dose-only effect, or effect the other way; inactive = no such curve, though single readings can be large or run the other way. Some of the results follow.
Hi there, use one of these labels in your reply, thanks! True (active), False (inactive)

Solved cases below.
>  <Compound>
CCOC(=O)c1sc(N(Cc2ccccc2)C(=O)CN2C(=O)CN(C)C2=O)nc1C

>  <Answer label>
True

$$$$
>  <Compound>
Nc1nc2c(nc(Br)n2[C@@H]2O[C@H]3COP(=O)(O)O[C@@H]3[C@H]2O)c(=O)[nH]1

>  <Answer label>
False

$$$$
>  <Compound>
Cc1ccc(C2=Nc3ccccc3S[C@@H](c3cccc([N+](=O)[O-])c3)C2)cc1

>  <Answer label>
True

$$$$
>  <Compound>
CC(=O)N1CCN(c2nc(C)nc3sc4c(c23)CCC(C)C4)CC1 (stereo unspecified)

>  <Answer label>
True

$$$$
>  <Compound>
O=c1cc(N2CCC(Cc3ccccc3)CC2)[nH]c(=O)n1C1CCCCC1

>  <Answer label>
True

$$$$
>  <Compound>
O=c1cc(N2CCN(c3cccc(Cl)c3)CC2)[nH]c(=O)n1C1CCCCC1

>  <Answer label>
True

$$$$
>  <Compound>
CCCCNc1cc(=O)oc2ccccc12

>  <Answer label>
True

$$$$
>  <Compound>
N#C/C(=C\c1ccc(O)c(O)c1)C(=O)NCCCc1ccccc1

>  <Answer label>
True

$$$$
>  <Compound>
CC(=O)N(O)CCCCCNC(=O)CCC(=O)N(O)CCCCCNC(=O)CCC(=O)N(O)CCCCCN

>  <Answer label>
False

$$$$
>  <Compound>
N#C/C(=C\c1ccc(O)c(O)c1)C(=O)c1ccc(O)c(O)c1

>  <Answer label>
False

$$$$

Query: Could you kindly confirm the outcome this assay logged for CC(=O)Nc1cccc(C(=O)OCc2ccc(C(=O)Oc3ccc(Cl)cc3)cc2)c1 ?
Response: True

Query: Given CCOC(=O)c1sc(NS(=O)(=O)c2ccccc2)nc1C , state the outcome it received in this test.
Response: False

Query: Write down the call the test reported for this compound. Item: CN(C)S(=O)(=O)Oc1ccccc1C(=O)Nc1cccc(C(F)(F)F)c1
Response: True

* * *

# Target desc: Cytochrome P450 2C19 (Homo sapiens) (UniProt P33261)
# Sequence (P33261 whole entry, looked up): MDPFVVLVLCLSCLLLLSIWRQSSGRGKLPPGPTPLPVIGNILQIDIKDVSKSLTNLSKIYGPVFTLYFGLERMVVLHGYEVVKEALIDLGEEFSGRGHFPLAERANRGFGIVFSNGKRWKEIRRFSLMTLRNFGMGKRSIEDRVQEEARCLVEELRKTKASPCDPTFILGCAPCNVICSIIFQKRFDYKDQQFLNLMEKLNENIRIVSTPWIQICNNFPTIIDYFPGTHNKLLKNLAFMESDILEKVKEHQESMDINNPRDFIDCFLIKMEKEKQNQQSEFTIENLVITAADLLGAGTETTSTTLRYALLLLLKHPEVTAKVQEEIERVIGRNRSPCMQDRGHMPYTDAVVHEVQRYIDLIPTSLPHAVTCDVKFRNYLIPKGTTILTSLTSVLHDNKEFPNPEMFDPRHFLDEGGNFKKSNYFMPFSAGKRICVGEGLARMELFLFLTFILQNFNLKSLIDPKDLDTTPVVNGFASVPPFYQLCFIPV
# Assay name: Cytochrome panel assay with activity outcomes
# Condition parameters: recombinant CYP, pro-luciferin dealkylation, luminescence, p450-cyp2c19; series mostly up to 57.1 µM
The campaign covered roughly 16,000 compounds. About 5,800 (36%) were called active. Roughly 23% stayed inconclusive and do not appear here. Calls come from the whole dose curve; as a rule, active = well fitted curve in the direction sought with a large enough effect; inconclusive = small, poorly fitted or top-dose-only effect, or effect the other way; inactive = no such curve, though single readings can be large or run the other way. The list shows a part of the results.
Your answer must be one of the following: y for active, n for inactive

Examples from the recorded data:
>  <Molecule>
COc1ccccc1-c1cncnc1NCc1cccs1

>  <Answer label>
y

$$$$
>  <Molecule>
CN(C)Cc1ccccc1-c1cc(NC2CC2)ncn1

>  <Answer label>
n

$$$$
>  <Molecule>
Fc1ccc(Cn2c(SCc3ccc(F)c(F)c3)nnc2C(F)(F)F)cc1

>  <Answer label>
y

$$$$
>  <Molecule>
CC1CCN(c2ccc(/C=N/n3nnnc3N)cc2[N+](=O)[O-])CC1

>  <Answer label>
n

$$$$
>  <Molecule>
FC(F)(F)c1ccccc1-c1cncnc1NCc1cccs1

>  <Answer label>
y

$$$$
>  <Molecule>
Cn1c(CN2CCCCC2)nc2cc(NC(=O)c3ccc(Cl)cc3)ccc21

>  <Answer label>
y

$$$$
>  <Molecule>
COc1cccc(OC)c1OCCCN1CCOCC1

>  <Answer label>
n

$$$$
>  <Molecule>
CN(C)S(=O)(=O)Oc1cccc(C(=O)Nc2ccccc2Cl)c1

>  <Answer label>
y

$$$$

Query: Recorded call for COc1ccccc1NC(=O)CC1COc2ccccc2O1 (stereo unspecified) ?
Response: y

Query: Kindly provide the recorded test outcome for the following molecule: Nc1nc(Cl)cc(N2CCOCC2)n1
Response: n

Query: Test call, this molecule: NC(=NCc1ccc(Cl)c(Cl)c1)NC(=O)c1nc(Cl)c(N)nc1N
Response: n

Query: Dear all, I need the recorded test outcome for CC12CCC(C(=O)O)(C/C1=N\O)C2(C)C (stereo unspecified) , thank you.
Response: n

* * *

Measured activity, negative = inhibition by item
# Target desc: Cytochrome P450 2C19 (Homo sapiens) (UniProt P33261)
# Assay name: Cytochrome panel assay with activity outcomes; for activity, negative = inhibition: % is set by controls: 0 for no effect and ±100 for the full control effect
# Condition parameters: recombinant CYP, pro-luciferin dealkylation, luminescence, p450-cyp2c19; series mostly up to 57.1 µM
# Experimental: The P450 gene superfamily is involved in the metabolism and clearance of xenobiotics. This assay used various human CYP P450 isozymes to measure the dealkylation of various pro-luciferin substrates to luciferin. The luciferin is then measured by luminescence after the addition of a luciferase detection reagent. […] Inhibitors and some substrates limit the production of luciferin, and decrease measured luminescence. […] 8, Detection, 1 sec, ViewLux luminescent read […]
The whole screen tested about 16,000 compounds, of which about 5,800 (36%) were called active. Not shown: some 23% with an inconclusive outcome. The list shows a part of the results.

Example cases with answers are listed next.
>  <Compound string>
C[C@@]12CCC(=O)C=C1CC[C@H]1[C@@H]2[C@@H](O)C[C@]2(C)[C@@H]1CC[C@@]2(O)C(=O)COC(=O)C1CCCC1

>  <activity, negative = inhibition>
-27.7% [at 11.4 µM] (inactive)

$$$$
>  <Compound string>
COc1ccc(CN[C@H](C)C(=O)O)cc1

>  <activity, negative = inhibition>
24.9% [at 11.4 µM] (inactive)

$$$$
>  <Compound string>
CC(C)=CCC/C(C)=C/CO/N=C1/C[C@@H](O)[C@@H](O)[C@@H]2[C@@H]3C(=O)N(C[C@@H]4CCCO4)C(=O)[C@H]3CC[C@H]12

>  <activity, negative = inhibition>
-12% [at 11.4 µM] (inactive)

$$$$
>  <Compound string>
CO[C@H]1COC(=O)[C@H]2CCCN2C(=O)[C@@H](C)COC(=O)C/C=C\[C@@H]1C

>  <activity, negative = inhibition>
43.2% [at 11.4 µM] (inactive)

$$$$
>  <Compound string>
C[C@]1(O)CC[C@H]2[C@H]3CC=C4N5CCN=C5CC[C@@]4(C)[C@H]3CC[C@@]21C

>  <activity, negative = inhibition>
14.3% [at 11.4 µM] (inactive)

$$$$
>  <Compound string>
O=C(O)CCCc1ccc2ccccc2c1

>  <activity, negative = inhibition>
0.826% [at 11.4 µM] (inactive)

$$$$
>  <Compound string>
O=C(Nc1ccc(-c2cn3ccccc3n2)cc1)c1cc(Br)ccc1O

>  <activity, negative = inhibition>
-1.2% [at 11.4 µM] (inactive)

$$$$
>  <Compound string>
Nc1nc(-c2ccc3ccccc3c2)cc(-c2cc(-c3ccc4ccccc4c3)nc(N)n2)n1

>  <activity, negative = inhibition>
10.1% [at 11.4 µM] (inactive)

$$$$
>  <Compound string>
CCN(CC)C[C@@H](O)c1ccc2ccc3ccccc3c2c1

>  <activity, negative = inhibition>
-3.19% [at 11.4 µM] (inactive)

$$$$
>  <Compound string>
Cc1ccc2nc(N/N=C\c3cccc(C)n3)cc(C)c2c1

>  <activity, negative = inhibition>
-12.3% [at 11.4 µM] (inactive)

$$$$

Query: # return recorded activity, negative = inhibition for input N=C(N)SCCSC(=N)N
Response: 2.37% [at 11.4 µM] (inactive)

Query: State its activity, negative = inhibition: O=C1CCC(c2ccccc2)=NN1c1nc2ccccc2s1
Response: 6.12% [at 11.4 µM] (inactive)

Query: State its activity, negative = inhibition: CO[C@H]1COC(=O)C/C=C\[C@H](C)[C@@H](OC)COC(=O)[C@H](Cc2ccccc2)NC(=O)C/C=C\[C@@H]1C
Response: -37.5% [at 11.4 µM] (inactive)

Query: Query activity, negative = inhibition for CC(C)(C)C(=O)[C@H]([C@@H](c1ccccc1)N1CCOCC1)N1CCOCC1
Response: 27.5% [at 11.4 µM] (inactive)

Query: Given the compound CC(=O)O[C@]1(C)N=NC2(CCCCC2)O1 , write its reported activity, negative = inhibition.
Response: 5.37% [at 11.4 µM] (inactive)

Query: Report activity, negative = inhibition for O=C(O)c1nnsc1-c1csnn1
Response: -19.5% [at 11.4 µM] (inactive)

Query: Please look at this compound and report its activity, negative = inhibition: NCS(=O)(=O)O
Response: 8.81% [at 11.4 µM] (inactive)

Query: Kindly indicate its recorded activity, negative = inhibition. Item: CC(C)(N=NC(C)(C)C1=NCCN1)C1=NCCN1
Response: 30.5% [at 11.4 µM] (inactive)

Query: Give the value of activity, negative = inhibition reported for the following: CC1(C)S[C@@H]2[C@H](C(=O)O)N=C(Cc3ccccc3)N2[C@H]1C(=O)O
Response: 28.2% [at 11.4 µM] (inactive)

Query: Give me measured activity, negative = inhibition, please, for this compound: O=C(O)[C@@H]1[C@@H]2C[C@H]([C@@H](Br)[C@H]2N2C(=O)CCC2=O)[C@@H]1C(=O)O
Response: 39.9% [at 11.4 µM] (inactive)

Query: // fetch activity, negative = inhibition given entry O=C1C=C[C@@H](O)[C@H]2[C@@H]3C(=O)N(c4cccc(Oc5ccccc5)c4)C(=O)[C@@H]3CC[C@H]12
Response: -33.5% [at 11.4 µM] (inactive)

Query: State, in one line, measured activity, negative = inhibition of O=C(O)[C@@H]1CCCN1Cc1cc2ccccc2c2ccccc12
Response: 31.6% [at 11.4 µM] (inactive)

Query: Let me know recorded activity, negative = inhibition for N#CC1(Nc2ccc(-c3ccc(NC4(C#N)CCCC4)cc3)cc2)CCCC1 , thanks.
Response: 4.93% [at 11.4 µM] (inactive)

Query: # return recorded activity, negative = inhibition for entry O=C(O)C[n+]1ccccc1
Response: -3.69% [at 11.4 µM] (inactive)

Query: Using the record for O[C@@H](c1cc(C(F)(F)F)nc2c(Cl)cc(Cl)cc12)[C@@H]1CCCCN1 , state its measured activity, negative = inhibition.
Response: -14.3% [at 11.4 µM] (inactive)

Query: Read off the recorded activity, negative = inhibition for Cn1c(=S)c2[nH]c(SCCCc3ccccc3)nc2n(C)c1=O
Response: -28.4% [at 11.4 µM] (inactive)

Query: Provide activity, negative = inhibition value for the following compound: O=C(O)c1c(-c2c3ccc(=O)cc-3oc3cc(O)ccc23)cc2ccccc2c1-c1ccccc1
Response: 25.6% [at 11.4 µM] (inactive)
